Each recorded value in this set is attributed to ChEMBL document CHEMBL1151772.

biological target: Phospholipase A2, membrane associated (Homo sapiens); test: Inhibition of human nonpancreatic secretory phospholipase A2
Sequence (P14555 whole entry): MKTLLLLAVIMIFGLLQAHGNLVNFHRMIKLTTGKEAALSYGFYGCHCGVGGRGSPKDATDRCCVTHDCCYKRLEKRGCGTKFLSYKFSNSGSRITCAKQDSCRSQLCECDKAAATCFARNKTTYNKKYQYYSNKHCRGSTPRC
readout.label: IC50 (µM)
# number only, unit µM dropped from output

NC(Cc1c[nH]c2ccc(OCc3ccccc3)cc12)C(=O)O (centres undefined) = 42.1
O=C(C[n+]1ccc(Cc2ccc([N+](=O)[O-])cc2)cc1)c1ccccc1 = 43.7
NCCc1c[nH]c2c(OCc3ccccc3)cccc12 = 52.5

Now for the compound whose IC50 we want.
# return recorded IC50 for entry `NCCOc1ccc(Oc2ccccc2)cc1`
7.3

====

target: Leukotriene A-4 hydrolase (Homo sapiens); assay: Inhibition of aminopeptidase activity of human leukotriene A4 hydrolase assessed as para-nitroanilide release by spectrophotometry
Sequence (P09960 whole entry): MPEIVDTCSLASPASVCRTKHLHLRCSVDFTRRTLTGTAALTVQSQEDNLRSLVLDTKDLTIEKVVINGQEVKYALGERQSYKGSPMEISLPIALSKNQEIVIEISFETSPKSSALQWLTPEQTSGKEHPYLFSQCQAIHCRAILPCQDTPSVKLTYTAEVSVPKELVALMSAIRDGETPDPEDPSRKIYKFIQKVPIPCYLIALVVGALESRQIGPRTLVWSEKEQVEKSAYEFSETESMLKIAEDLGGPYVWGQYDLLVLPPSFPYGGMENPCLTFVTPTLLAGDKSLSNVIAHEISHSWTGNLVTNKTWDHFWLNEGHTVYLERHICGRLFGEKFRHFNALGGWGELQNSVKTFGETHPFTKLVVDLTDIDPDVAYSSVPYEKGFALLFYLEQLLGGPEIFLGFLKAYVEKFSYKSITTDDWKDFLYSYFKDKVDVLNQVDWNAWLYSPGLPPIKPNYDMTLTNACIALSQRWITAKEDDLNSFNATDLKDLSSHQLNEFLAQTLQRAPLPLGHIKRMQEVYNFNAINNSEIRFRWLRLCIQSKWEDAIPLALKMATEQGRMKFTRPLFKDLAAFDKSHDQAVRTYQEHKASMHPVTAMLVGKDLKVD
readout.label: IC50 (µM)
# number only, unit µM dropped from output

// worked examples, IC50 included
O=C(C[n+]1ccc(Cc2ccc([N+](=O)[O-])cc2)cc1)c1ccccc1 = 23.4
NC(Cc1c[nH]c2ccc(OCc3ccccc3)cc12)C(=O)O (stereo not drawn) = 17.3

Now for the compound whose IC50 we want.
# return recorded IC50 for entry `NCCc1c[nH]c2c(OCc3ccccc3)cccc12`
12.5
